Values compiled from PubChem BioAssay.

System: Sam68 (KHDRBS1)
assay: Sam68 small-molecule binders, primary screen, biochemical, small-molecule microarray, 635 nm fluorescence (AID 1125);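 further: score merges 667 nm channel intensity with signal to noise over triplicate slides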
testContext: small-molecule microarray binding, higher = more signal
quantityKind: composite z-score
Simply state the number, no unit and no words.

Asked: Specify composite z-score for CN1C=C(C(=O)OCCS(C)(=O)=O)C(C(=O)OCCS(C)(=O)=O)=CC(c2ccc(CO)cc2)=CC1C1CC1 (centres undefined) , system Sam68 (KHDRBS1).
Given back: 0.449

Asked: Specify composite z-score for O=C1N[C@@H](Cc2ccccc2)C(=O)N2[C@@H]1C[C@@H](C(=O)O)[C@H]2c1cccc(OCCO)c1 , system Sam68 (KHDRBS1).
Given back: 1.22

Asked: Specify composite z-score for CCCc1cc2c(n1Cc1cc(F)cc(F)c1)C(C)C1CN(C(=O)c3ccccc3)C(C)(C(=O)OC)C21 (centres undefined) , system Sam68 (KHDRBS1).
Given back: 1.22

Asked: Specify composite z-score for CCN(CC)c1ccc(N2CC=CC34O[C@@H]5C=CCCOC(=O)C5[C@H]3C(=O)N(CCCCCCO)[C@@H]4C2=O)cc1 (some centres undefined) , system Sam68 (KHDRBS1).
Given back: 0.114

----------
assay: small-molecule microarray binders of probe aShh, primary screen, biochemical, biotinylated probe, 635/667 nm fluorescence (AID 1114);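 further: probe is biotin-labelled aShh protein from a stem cell growth factor screen; measures binding of labelled protein to compounds printed on the slide; score merges feature fluorescence at 667 nm with signal-to-noise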
testContext: higher = more signal
Can you tell me composite z-score for the items I'm about to list?

Asked: Identify measured composite z-score associated with COc1cc(Br)cc(C(O)C2C=CC3C(=O)N(C)C(=O)C3N2N2CCCCC2)c1OC (centres undefined)
Given back: 0.304

Asked: Identify measured composite z-score associated with CN1C(=O)C2C=CC(C(O)c3ccc([N+](=O)[O-])cc3)N(N3CCCCC3)C2C1=O (centres undefined)
Given back: 0.108

Asked: Identify measured composite z-score associated with COC(=O)[C@@]1(Cc2ccc(OC)cc2)[C@H]2c3cc(C(=O)N4CCCC4)n(CCN4CNCC4=O)c3C[C@H]2CN1C(=O)c1ccccc1
Given back: 2.77

Asked: Identify measured composite z-score associated with CC(C)=CCCC(C)=CC(O)C1C=CC2C(=O)N(C)C(=O)C2N1Nc1ccccc1 (centres undefined)
Given back: -0.0362

----------
Can you tell me z-score for the items I'm about to list?
assay: P. aeruginosa biofilm formation inhibitors, primary screen, PAO1 strain, BacTiter-Glo luminescence, LB-PBS (AID 1144)
testContext: 12 h, higher = more signal
Simply state the number, no unit and no words.

Asked: Identify measured z-score associated with COC(=O)C[C@H]1O[C@]2(C(=O)N(C)c3ccccc32)[C@@H](C)[C@@H]1[Si](C)(C)F
Given back: -0.852

Asked: Identify measured z-score associated with CCCC[C@@H]1C[C@H]1[C@@H](NC(=O)c1cccs1)c1ccc(-c2ccccc2)cc1
Given back: -0.218

Asked: Identify measured z-score associated with COCCOC(=O)N1C(=O)[C@@]2(c3cc(C#Cc4ccc(OC)cc4)ccc31)[C@H](c1ccccc1OCCO)N1[C@H](c3ccccc3)[C@H](c3ccccc3)OC(=O)[C@H]1[C@@H]2C(=O)NC[C@H](O)c1ccccc1
Given back: -0.436

Asked: Identify measured z-score associated with Cc1ccccc1C(O)C1C=CC2C(=O)N(c3ccccc3)C(=O)C2N1Nc1ccc(C(C)C)cc1 (stereo not drawn)
Given back: -0.481

Asked: Identify measured z-score associated with CN(C)CCCC[C@@H]1NC(=O)[C@H]2C[C@@H](C(=O)NCCCCCCN)[C@@H](c3ccc(O)cc3)N2C1=O
Given back: 0.523

Asked: Identify measured z-score associated with CCOC(=O)[C@H]1C/C=C/C[C@H](C(=O)OCC)C(=O)O[C@H]2[C@@H](OC)O[C@H](CO)[C@@H](OC(=O)c3c(OC)cccc3OC)[C@@H]2OC1=O
Given back: 0.0437

Asked: Identify measured z-score associated with CC(C)OC(=O)C=C1C[C@@H](c2ccccn2)O[C@@H](c2ccccn2)O1
Given back: 0.589

Asked: Identify measured z-score associated with COc1ccc([C@H]2OC[C@@H]3C[C@@H](Cc4ccccc4)C(=O)N32)cc1
Given back: 1.01

----------
assay: PSAC antagonists in infected red cells, primary screen, cell-based, P. falciparum Indochina, OD700, 18 h (AID 1157)
testContext: P. falciparum Indochina infected erythrocytes, osmotic lysis OD700, 18 h; higher = more signal, called active from +8 up or from −8 down
Can you tell me z-score for the items I'm about to list?
Simply state the number, no unit and no words.

Asked: Identify measured z-score associated with O=C1C[C@@](C(=O)NCC(F)(F)F)(c2ccc([N+](=O)[O-])cc2)[C@@H](c2ccc(CO)cc2I)N1C1CCCCC1
Given back: 0.599

Asked: Identify measured z-score associated with Oc1ccc2cc[n+](Cc3sc4ccccc4c3Cl)cc2c1
Given back: 0.352

Asked: Identify measured z-score associated with COc1ccc(CCNC(=O)[C@@H]2c3ccccc3C(=O)N(Cc3ccccc3Cl)[C@H]2c2ccc(CO)cc2)cc1
Given back: -0.11

Asked: Identify measured z-score associated with O=C1C2C=CC(C(O)Cc3ccccc3)N(n3cnnc3)C2C(=O)N1Cc1ccccc1 (configuration not stated)
Given back: 0.587

Asked: Identify measured z-score associated with COC(=O)[C@@]1(Cc2ccc(F)cc2)[C@H]2c3cc(C(=O)N(C)C)n(Cc4ccc(Cl)c(C(F)(F)F)c4)c3C[C@H]2CN1C(=O)c1ccccc1
Given back: 1.72

Asked: Identify measured z-score associated with COC(=O)[C@H](Cc1ccccc1)N[C@@H](/C=C/C1CC1)[C@H](O)Cc1ccccc1
Given back: 0.428

Asked: Identify measured z-score associated with CCCC[C@@H]1C[C@H]1[C@@H](NC(=O)c1ccco1)c1ccccc1C(F)(F)F
Given back: 0.471

Asked: Identify measured z-score associated with C=CCOC(=O)[C@@H]1[C@H]2C(=O)O[C@H](c3ccccc3)[C@H](c3ccccc3)N2[C@H](c2ccc(OCCOC(=O)[C@@H]3C[C@@H]4C(=O)NCC(=O)N4[C@@H]3c3ccc(O)cc3)cc2)[C@@]12C(=O)Nc1ccc(I)cc12
Given back: 0.398

Asked: Identify measured z-score associated with COC(=O)[C@@]1(Cc2ccc(OC)cc2)[C@H]2c3cc(C(=O)N4CCCC4)n(Cc4ccc(O)c(OC)c4)c3C[C@H]2CN1C(=O)c1ccccc1
Given back: 0.739

Asked: Identify measured z-score associated with CCCC[C@@H]1C[C@H]1[C@@H](NC(=O)c1ccccc1)c1ccc(C(=O)OC)cc1
Given back: 0.643

Asked: Identify measured z-score associated with O=C(c1ccccc1)N1C(=O)[C@@]2(Cc3ccccc31)N=C(c1ccc(OCCCO)cc1)O[C@H]2c1ccccc1
Given back: 1.03

Asked: Identify measured z-score associated with COCCOC(=O)N1C(=O)[C@@]2(c3cc(C#CCCO)ccc31)[C@H](C(=O)N1CCCCCCC1)[C@H]1C(=O)O[C@H](c3ccccc3)[C@H](c3ccccc3)N1[C@@H]2c1ccc(OCCO)cc1
Given back: 0.982

Asked: Identify measured z-score associated with CCC(CC)C(O)C1C=CC2C(=O)NC(=O)C2N1Nc1ccc(Cl)cc1Cl (configuration not stated)
Given back: 1.24

Asked: Identify measured z-score associated with COc1ccc([Si](C)(C)[C@H]2[C@H](CC(=O)N3Cc4ccccc4C[C@H]3CO)O[C@@]3(C(=O)N(Cc4cccc(N5CCC5=O)c4)c4ccccc43)[C@@H]2C)cc1
Given back: 1.09

Asked: Identify measured z-score associated with CC1CC/C=C\[C@H]2OC34C=CCN(Cc5ccccc5)C(=O)[C@H]3N(CCCO)C(=O)[C@@H]4C2C(=O)O1 (some centres not stated)
Given back: -0.254

Asked: Identify measured z-score associated with O=C1N(Cc2ccccc2)c2ccccc2[C@@H]2OC(c3ccc(OCCCO)cc3)=N[C@]12CCS(=O)(=O)c1ccccc1
Given back: 1.57

Asked: Identify measured z-score associated with CCOC(=O)C[C@H]1[C@H](OC(=O)c2ccc(-c3ccccc3)cc2)[C@@H](NC(=O)Cc2ccc(OC)cc2)c2cc(OCCCO)ccc2N1C(=O)c1ccccc1
Given back: 0.285

Asked: Identify measured z-score associated with COCCOC(=O)N1C(=O)[C@@]2(c3cc(C#CCC(C(=O)OC)C(=O)OC)ccc31)[C@H](C(=O)Nc1nc3ccccc3s1)[C@H]1C(=O)O[C@H](c3ccccc3)[C@H](c3ccccc3)N1[C@@H]2c1ccccc1OCCO
Given back: 2.31

Asked: Identify measured z-score associated with COCC(=C=CC[C@@H](O)c1cccc(OCCO)c1)C[C@@H](O)c1ccccn1
Given back: 0.675

Asked: Identify measured z-score associated with C=CCN1C(=O)[C@]2(O[C@H](CCn3cc([C@H](O)c4ccccc4)nn3)[C@@H]([Si](C)(C)c3ccc(OC)cc3)[C@@H]2C)c2cc(N3CCC3=O)ccc21
Given back: 0.721

Asked: Identify measured z-score associated with CCCC[C@@H]1C[C@H]1[C@@H](NC(=O)C(C)(C)C)c1ccc(C(F)(F)F)cc1
Given back: -1.37

Asked: Identify measured z-score associated with NC(=O)[C@@H]1[C@H]2C(=O)O[C@H](c3ccccc3)[C@H](c3ccccc3)N2[C@H](c2ccc(O)cc2)[C@@]12C(=O)Nc1ccccc12
Given back: -2.21
